study_system: Recombinant Mouse Matriptase (Mus musculus, UniProt P56677)
Sequence (P56677 615-855 limits assumed): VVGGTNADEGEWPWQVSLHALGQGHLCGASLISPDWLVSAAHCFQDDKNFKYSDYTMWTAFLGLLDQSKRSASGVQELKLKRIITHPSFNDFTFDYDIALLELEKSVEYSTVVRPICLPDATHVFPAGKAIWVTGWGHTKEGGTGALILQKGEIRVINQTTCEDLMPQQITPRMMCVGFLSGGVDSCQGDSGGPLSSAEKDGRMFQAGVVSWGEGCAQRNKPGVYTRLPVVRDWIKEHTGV
method_description: fluorogenic AMC release from Boc-QAC-AMC
measurement_type: pIC50
Scale for pIC50: -log10 of concentration given in mol/L; no unit attached.

# lookup: pIC50 of N=C(N)c1ccc2cc(OC(=O)c3ccc(N=C(N)N)cc3)ccc2c1 [Nafamostat mesilate]
9.07
